# Test system: Klebsiella pneumoniae
# ASSAY NAME: Antibacterial activity against Klebsiella pneumoniae ATCC10031 by broth microdilution method
# Format: functional
ATTRIBUTE MEASURED: log10 MIC (log10 of the value in µg/mL)
Scale: decimal log of MIC, MIC in µg/mL.

Give recorded log10 MIC. CCCc1ccc(-c2cn(CC(=O)NNC(=O)O[C@H]3[C@H](C)[C@@H](O[C@@H]4O[C@H](C)C[C@H](N(C)C)[C@H]4O)[C@](C)(O)C[C@@H](C)CN(C)[C@H](C)[C@H]4OC(=O)O[C@]4(C)[C@@H](CC)OC(=O)[C@@H]3C)nn2)cc1
1.20

Give recorded log10 MIC. CC[C@H]1OC(=O)[C@H](C)[C@@H](OC(=O)NNC(=O)Cn2cc(-c3ccc(Br)cc3)nn2)[C@H](C)[C@@H](O[C@@H]2O[C@H](C)C[C@H](N(C)C)[C@H]2O)[C@](C)(O)C[C@@H](C)CN(C)[C@H](C)[C@H]2OC(=O)O[C@@]21C
1.81

Give recorded log10 MIC. CC[C@H]1OC(=O)[C@H](C)[C@@H](O[C@H]2C[C@@](C)(OC)[C@@H](O)[C@H](C)O2)[C@H](C)[C@@H](O[C@@H]2O[C@H](C)C[C@H](N(C)C)[C@H]2O)[C@](C)(O)C[C@@H](C)CN(C)[C@H](C)[C@@H](O)[C@]1(C)O
0.30

Give recorded log10 MIC. CC[C@H]1OC(=O)[C@H](C)[C@@H](OC(=O)NNC(=O)Cn2cc(-c3ccc(C)cc3)nn2)[C@H](C)[C@@H](O[C@@H]2O[C@H](C)C[C@H](N(C)C)[C@H]2O)[C@](C)(O)C[C@@H](C)CN(C)[C@H](C)[C@H]2OC(=O)O[C@@]21C
1.20

Give recorded log10 MIC. CC[C@H]1OC(=O)[C@H](C)[C@@H](O[C@H]2C[C@@](C)(OC)[C@@H](O)[C@H](C)O2)[C@H](C)[C@@H](O[C@@H]2O[C@H](C)C[C@H](N(C)C)[C@H]2O)[C@](C)(OC)C[C@@H](C)C(=O)[C@H](C)[C@@H](O)[C@]1(C)O
0.60

Give recorded log10 MIC. CC[C@H]1OC(=O)[C@H](C)[C@@H](OC(=O)NNC(=O)Cn2cc(-c3cccc([N+](=O)[O-])c3)nn2)[C@H](C)[C@@H](O[C@@H]2O[C@H](C)C[C@H](N(C)C)[C@H]2O)[C@](C)(O)C[C@@H](C)CN(C)[C@H](C)[C@H]2OC(=O)O[C@@]21C
1.51

* * *

# Tested on: Staphylococcus aureus
# ASSAY NAME: Antibacterial activity against penicillin-resistant Staphylococcus aureus by broth microdilution method
# Type: functional
ATTRIBUTE MEASURED: MIC (µg/mL)
Use µg/mL as the unit, but write only the number.

Give recorded MIC. CC[C@H]1OC(=O)[C@H](C)[C@@H](OC(=O)NNC(=O)Cn2cc(-c3cccc(C)c3)nn2)[C@H](C)[C@@H](O[C@@H]2O[C@H](C)C[C@H](N(C)C)[C@H]2O)[C@](C)(O)C[C@@H](C)CN(C)[C@H](C)[C@H]2OC(=O)O[C@@]21C
256

Give recorded MIC. CC[C@H]1OC(=O)[C@H](C)[C@@H](OC(=O)NNC(=O)Cn2cc(-c3ccc(-c4ccccc4)cc3)nn2)[C@H](C)[C@@H](O[C@@H]2O[C@H](C)C[C@H](N(C)C)[C@H]2O)[C@](C)(O)C[C@@H](C)CN(C)[C@H](C)[C@H]2OC(=O)O[C@@]21C
32

Give recorded MIC. CC[C@H]1OC(=O)[C@H](C)[C@@H](OC(=O)NNC(=O)Cn2cc(-c3cccc(Cl)c3)nn2)[C@H](C)[C@@H](O[C@@H]2O[C@H](C)C[C@H](N(C)C)[C@H]2O)[C@](C)(O)C[C@@H](C)CN(C)[C@H](C)[C@H]2OC(=O)O[C@@]21C
256

Give recorded MIC. CC[C@H]1OC(=O)[C@H](C)[C@@H](OC(=O)NNC(=O)Cn2cc(-c3ccccc3OC)nn2)[C@H](C)[C@@H](O[C@@H]2O[C@H](C)C[C@H](N(C)C)[C@H]2O)[C@](C)(O)C[C@@H](C)CN(C)[C@H](C)[C@H]2OC(=O)O[C@@]21C
256

Give recorded MIC. CCCc1ccc(-c2cn(CC(=O)NNC(=O)O[C@H]3[C@H](C)[C@@H](O[C@@H]4O[C@H](C)C[C@H](N(C)C)[C@H]4O)[C@](C)(O)C[C@@H](C)CN(C)[C@H](C)[C@H]4OC(=O)O[C@]4(C)[C@@H](CC)OC(=O)[C@@H]3C)nn2)cc1
64

Give recorded MIC. CCc1ccc(-c2cn(CC(=O)NNC(=O)O[C@H]3[C@H](C)[C@@H](O[C@@H]4O[C@H](C)C[C@H](N(C)C)[C@H]4O)[C@](C)(O)C[C@@H](C)CN(C)[C@H](C)[C@H]4OC(=O)O[C@]4(C)[C@@H](CC)OC(=O)[C@@H]3C)nn2)cc1
64

Give recorded MIC. CC[C@H]1OC(=O)[C@H](C)[C@@H](OC(=O)NNC(=O)Cn2cc(-c3cccc([N+](=O)[O-])c3)nn2)[C@H](C)[C@@H](O[C@@H]2O[C@H](C)C[C@H](N(C)C)[C@H]2O)[C@](C)(O)C[C@@H](C)CN(C)[C@H](C)[C@H]2OC(=O)O[C@@]21C
256

Give recorded MIC. CC[C@H]1OC(=O)[C@H](C)[C@@H](OC(=O)NNC(=O)Cn2cc(-c3ccc(F)cc3)nn2)[C@H](C)[C@@H](O[C@@H]2O[C@H](C)C[C@H](N(C)C)[C@H]2O)[C@](C)(O)C[C@@H](C)CN(C)[C@H](C)[C@H]2OC(=O)O[C@@]21C
128

Give recorded MIC. CC[C@H]1OC(=O)[C@H](C)[C@@H](OC(=O)NNC(=O)Cn2cc(-c3ccc(Br)cc3)nn2)[C@H](C)[C@@H](O[C@@H]2O[C@H](C)C[C@H](N(C)C)[C@H]2O)[C@](C)(O)C[C@@H](C)CN(C)[C@H](C)[C@H]2OC(=O)O[C@@]21C
128

Give recorded MIC. CCOc1ccc(-c2cn(CC(=O)NNC(=O)O[C@H]3[C@H](C)[C@@H](O[C@@H]4O[C@H](C)C[C@H](N(C)C)[C@H]4O)[C@](C)(O)C[C@@H](C)CN(C)[C@H](C)[C@H]4OC(=O)O[C@]4(C)[C@@H](CC)OC(=O)[C@@H]3C)nn2)cc1
128

Give recorded MIC. CC[C@H]1OC(=O)[C@H](C)[C@@H](OC(=O)NNC(=O)Cn2cc(-c3ccccc3)nn2)[C@H](C)[C@@H](O[C@@H]2O[C@H](C)C[C@H](N(C)C)[C@H]2O)[C@](C)(O)C[C@@H](C)CN(C)[C@H](C)[C@H]2OC(=O)O[C@@]21C
256

Give recorded MIC. CC[C@H]1OC(=O)[C@H](C)[C@@H](OC(=O)NNC(=O)Cn2cc(-c3cccc(Br)c3)nn2)[C@H](C)[C@@H](O[C@@H]2O[C@H](C)C[C@H](N(C)C)[C@H]2O)[C@](C)(O)C[C@@H](C)CN(C)[C@H](C)[C@H]2OC(=O)O[C@@]21C
256

Give recorded MIC. CCCCc1ccc(-c2cn(CC(=O)NNC(=O)O[C@H]3[C@H](C)[C@@H](O[C@@H]4O[C@H](C)C[C@H](N(C)C)[C@H]4O)[C@](C)(O)C[C@@H](C)CN(C)[C@H](C)[C@H]4OC(=O)O[C@]4(C)[C@@H](CC)OC(=O)[C@@H]3C)nn2)cc1
32

Give recorded MIC. CC[C@H]1OC(=O)[C@H](C)[C@@H](OC(=O)NNC(=O)Cn2cc(-c3ccccc3Cl)nn2)[C@H](C)[C@@H](O[C@@H]2O[C@H](C)C[C@H](N(C)C)[C@H]2O)[C@](C)(O)C[C@@H](C)CN(C)[C@H](C)[C@H]2OC(=O)O[C@@]21C
256

* * *

# Tested on: Staphylococcus aureus
# ASSAY NAME: Antibacterial activity against methicillin-resistant Staphylococcus aureus ATCC43300 by broth microdilution method
# Type: functional
ATTRIBUTE MEASURED: MIC

Give recorded MIC. CC[C@H]1OC(=O)[C@H](C)[C@@H](O[C@H]2C[C@@](C)(OC)[C@@H](O)[C@H](C)O2)[C@H](C)[C@@H](O[C@@H]2O[C@H](C)C[C@H](N(C)C)[C@H]2O)[C@](C)(OC)C[C@@H](C)C(=O)[C@H](C)[C@@H](O)[C@]1(C)O [CLARITHROMYCIN]
> 256 µg/mL

Give recorded MIC. CC[C@H]1OC(=O)[C@H](C)[C@@H](O[C@H]2C[C@@](C)(OC)[C@@H](O)[C@H](C)O2)[C@H](C)[C@@H](O[C@@H]2O[C@H](C)C[C@H](N(C)C)[C@H]2O)[C@](C)(O)C[C@@H](C)CN(C)[C@H](C)[C@@H](O)[C@]1(C)O [AZITHROMYCIN]
> 256 µg/mL

Give recorded MIC. CC[C@H]1OC(=O)[C@H](C)[C@@H](OC(=O)NNC(=O)Cn2cc(-c3ccc(OC)cc3)nn2)[C@H](C)[C@@H](O[C@@H]2O[C@H](C)C[C@H](N(C)C)[C@H]2O)[C@](C)(O)C[C@@H](C)CN(C)[C@H](C)[C@H]2OC(=O)O[C@@]21C
256 µg/mL

Give recorded MIC. CC[C@H]1OC(=O)[C@H](C)[C@@H](OC(=O)NNC(=O)Cn2cc(-c3cccc(Cl)c3)nn2)[C@H](C)[C@@H](O[C@@H]2O[C@H](C)C[C@H](N(C)C)[C@H]2O)[C@](C)(O)C[C@@H](C)CN(C)[C@H](C)[C@H]2OC(=O)O[C@@]21C
128 µg/mL

Give recorded MIC. CC[C@H]1OC(=O)[C@H](C)[C@@H](OC(=O)NNC(=O)Cn2cc(-c3cccc(C)c3)nn2)[C@H](C)[C@@H](O[C@@H]2O[C@H](C)C[C@H](N(C)C)[C@H]2O)[C@](C)(O)C[C@@H](C)CN(C)[C@H](C)[C@H]2OC(=O)O[C@@]21C
128 µg/mL

Give recorded MIC. CC[C@H]1OC(=O)[C@H](C)[C@@H](OC(=O)NNC(=O)Cn2cc(-c3ccc(C)cc3)nn2)[C@H](C)[C@@H](O[C@@H]2O[C@H](C)C[C@H](N(C)C)[C@H]2O)[C@](C)(O)C[C@@H](C)CN(C)[C@H](C)[C@H]2OC(=O)O[C@@]21C
256 µg/mL
